Reference source for all entries: paper PMC9281569

// pIC50 lookup, one value per entry
Molecular target: HsHCN4 (Homo sapiens)
Construct: host or cells: Xenopus laevis oocytes injected with cRNA (pGEMHE vector)
Sequence (Q9Y3Q4 whole entry): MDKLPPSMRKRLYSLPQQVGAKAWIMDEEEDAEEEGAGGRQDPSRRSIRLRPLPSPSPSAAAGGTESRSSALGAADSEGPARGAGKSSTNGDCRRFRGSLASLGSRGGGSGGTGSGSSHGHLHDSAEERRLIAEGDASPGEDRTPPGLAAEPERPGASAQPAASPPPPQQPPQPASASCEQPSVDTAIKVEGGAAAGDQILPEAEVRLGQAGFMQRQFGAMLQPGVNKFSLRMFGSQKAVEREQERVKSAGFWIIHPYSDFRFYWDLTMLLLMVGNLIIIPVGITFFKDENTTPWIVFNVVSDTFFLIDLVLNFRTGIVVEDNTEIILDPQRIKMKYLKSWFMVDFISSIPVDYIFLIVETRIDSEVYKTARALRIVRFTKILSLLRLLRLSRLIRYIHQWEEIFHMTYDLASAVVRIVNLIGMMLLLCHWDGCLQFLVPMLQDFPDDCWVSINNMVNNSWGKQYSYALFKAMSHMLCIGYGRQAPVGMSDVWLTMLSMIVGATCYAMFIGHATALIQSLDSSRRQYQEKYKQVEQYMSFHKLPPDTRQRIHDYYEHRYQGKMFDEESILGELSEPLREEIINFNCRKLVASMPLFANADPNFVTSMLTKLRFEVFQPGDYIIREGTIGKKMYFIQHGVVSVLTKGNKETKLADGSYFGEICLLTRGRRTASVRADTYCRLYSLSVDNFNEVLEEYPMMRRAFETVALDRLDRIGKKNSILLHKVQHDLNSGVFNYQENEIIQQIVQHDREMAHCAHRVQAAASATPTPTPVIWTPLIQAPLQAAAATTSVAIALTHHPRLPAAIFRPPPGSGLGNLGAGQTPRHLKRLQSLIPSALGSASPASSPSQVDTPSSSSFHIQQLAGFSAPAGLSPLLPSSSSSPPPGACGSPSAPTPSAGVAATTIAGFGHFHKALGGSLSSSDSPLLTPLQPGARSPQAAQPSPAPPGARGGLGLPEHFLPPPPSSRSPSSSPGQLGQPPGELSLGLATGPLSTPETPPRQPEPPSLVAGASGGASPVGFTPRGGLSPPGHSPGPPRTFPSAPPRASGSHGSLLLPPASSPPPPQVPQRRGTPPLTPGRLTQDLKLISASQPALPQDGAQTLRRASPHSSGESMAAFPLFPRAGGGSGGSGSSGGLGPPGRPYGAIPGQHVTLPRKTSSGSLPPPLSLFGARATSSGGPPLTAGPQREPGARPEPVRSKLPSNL
Experiment: Inhibition of HCN4 currents in Xenopus oocytes, two-electrode voltage clamp
Type: cell-based
Details: holding −30 mV, hyperpolarized to −120 mV for 2 s, room temperature
Interpret pIC50 as the negative base-10 log of the concentration measured in mol/L.

Compound: CCN(c1ccccc1)c1cc(=NC)n(C)c(C)n1.Cl [ZD7288]
Experimental Endpoint: pIC50
Measured Result: 3.78

Let us move to another entry and its pIC50.
(Q) Param item = [Cl-].[Cs+] [Cesium ion, Cesium chloride] ; retrieve measured pIC50.
(A) 4.16
